Experiment: qHTS Assay for Epigenetic Modulators; further: % of control where 0% means no effect
Conditions: mouse C127i GFP locus derepression, cytometry, 30 h; series mostly up to 46.1 µM
Description: NIH Molecular Libraries Screening Centers Network [MLSCN] NIH Chemical Genomics Center [NCGC] […] For further details of this screen and follow-up characterization, see R.L. Johnson, W. Huang, A. Jadhav, C.P. Austin, J. Inglese, E.D. Martinez, A Quantitative High-Throughput Screen Identifies Potential Epigenetic Modulators of Gene Expression, Analytical Biochemistry (2008) 375(2):237-48. […]
Among all 68,000 compounds or so, about 60 (0.09%) were called active. Not all results are given here.
measurement type: GFP derepression (activation)

Solved cases (5 shown):
molecule | GFP derepression (activation)
O=C(Cn1[nH]c(=O)c2ccccc2c1=O)Nc1cccc(-c2nnc3n2CCCCC3)c1 | inactive
COc1ccc(CNC(=O)C2CCN(S(=O)(=O)N3CCOCC3)CC2)cc1 | inactive
COCCn1c(=O)c(-c2cccs2)nc2cncnc21 | 2.3% [at 9.22 µM] (inactive)
Cn1cccc1C(=O)N1CCC[C@@]2(CCN(Cc3nccs3)C2)C1 | 4.6% [at 9.22 µM] (inactive)
O=c1[nH]c(=O)n([C@H]2C[C@H](O)[C@H](CO)O2)cc1Br | inactive

Summary for this molecule, "COc1ccccc1-c1nc(NCc2cccs2)c2ccccc2n1" : GFP derepression (activation) is 0% [at 9.22 µM] (inactive)

Summary for this molecule, "O=C(c1cccc(F)c1)N1CCC2(CC1)CCN(c1ccccc1)CC2" : GFP derepression (activation) is -1.6% [at 9.22 µM] (inactive)

* * *

Test: qHTS Assay for Epigenetic Modulators; further: % of control where 0% means no effect
Conditions: mouse C127i GFP locus derepression, cytometry, 30 h; series mostly up to 46.1 µM
In all, about 68,000 compounds went through this assay and about 60 (0.09%) were called active. A selection follows.
measurement type: GFP derepression (activation)

Solved cases (5 shown):
compound | measurement type | result
CCOC(=O)c1[nH]c2ccccc2c1N=C(C)N(CC)CC | GFP derepression (activation) | inactive
COc1ccc(C2C3=C(CC(C)(C)CC3=O)Oc3ncn4nc(-c5cccnc5)nc4c32)cc1OC (stereo not drawn) | GFP derepression (activation) | inactive
COCCn1c(=O)c(-c2cc(F)cc(F)c2)nc2cnc(N3CCNCC3)nc21 | GFP derepression (activation) | -0.5% [at 9.22 µM] (inactive)
COc1ccc(OC)c(CNC(=O)C2CCCN(c3nc4ccccc4o3)C2)c1 (stereo not drawn) | GFP derepression (activation) | inactive
CCCSc1nc2c(c(=O)n(C)c(=O)n2C)n1Cc1ccc(C)cc1 | GFP derepression (activation) | inactive

Summary for this compound, "CS(=O)(=O)N1CCC[C@@]2(CCN(c3ccncc3)C2)C1" : GFP derepression (activation) is 0% [at 9.22 µM] (inactive)

* * *

Test: qHTS Assay for Epigenetic Modulators; further: % of control where 0% means no effect
Conditions: mouse C127i GFP locus derepression, cytometry, 30 h; series mostly up to 46.1 µM
About 60 (0.09%) of roughly 68,000 compounds were called active. The list is a sample of the results.
measurement type: GFP derepression (activation)

compound | GFP derepression (activation)
O=C(c1ccc(=O)[nH]c1)N(Cc1ccco1)C1(C(=O)NC2CCCCC2)CCCCC1 | inactive
NC(=NC(=O)c1ccccc1)C1=C(O)CCC1=O | inactive
COCc1nc2ccccc2n1Cc1ccccc1Br | inactive
CC1=CC(C)(C)N(C(=O)CSc2nnc(-c3ccccc3)o2)c2ccc(C)cc21 | inactive
COc1ccc(NC(=O)c2c(C)oc3c2CCCC3)cc1 | inactive
CCn1c(SCC(=O)Nc2ccc3c(c2)OCCO3)nc2c(c1=O)SC(C)C2 (stereo not drawn) | inactive
O=C(O)c1ccc(COc2c(F)c(F)cc(F)c2F)o1 | inactive
Fc1ccccc1OCCCCn1cncn1 | inactive

Summary for this compound, "COC(=O)c1ccc(CSc2nncn2C)cc1" : GFP derepression (activation) is inactive

Summary for this compound, "O=C(c1c(Cl)nc2sccn12)N1CCCc2ccccc21" : GFP derepression (activation) is inactive

Summary for this compound, Cc1cc(NC(=O)CCC(=O)N(c2ccccc2)C(C(=O)NC2CCCC2)c2ccncc2)no1 (stereo not drawn) : GFP derepression (activation) is inactive

* * *

Experiment: qHTS Assay for Epigenetic Modulators; further: % of control where 0% means no effect
Settings: mouse C127i GFP locus derepression, cytometry, 30 h; series mostly up to 46.1 µM
Out of some 68,000 compounds screened, about 60 (0.09%) were called active. Not all results are given here.
measurement type: GFP derepression (activation)

molecule | measurement type | result
COc1cccc(-c2cc(NCCc3c[nH]c4ccc(OC)cc34)ncn2)c1 | GFP derepression (activation) | 5.1% [at 9.22 µM] (inactive)
Cc1ccc2[nH]c(=O)c(COC(=O)c3ccccn3)cc2c1 | GFP derepression (activation) | inactive
CCOC(=O)c1[nH]c2ccc(C)cc2c1N=C(C)N(C)C | GFP derepression (activation) | inactive
CCOC(=O)N1CCN(C(=O)c2n[nH]c(=O)c3ccccc23)CC1 | GFP derepression (activation) | inactive
CCCc1[nH]nc2c1C(c1ccc(OC(=O)c3ccco3)cc1)C(C#N)=C(N)O2 (configuration not stated) | GFP derepression (activation) | inactive

Summary for this molecule, "COc1ccccc1CNC(=O)CCCNS(=O)(=O)c1cccc2nsnc12" : GFP derepression (activation) is inactive

Summary for this molecule, "O=C(O)c1ccc(NS(=O)(=O)c2cccc3nsnc23)cc1" : GFP derepression (activation) is inactive

Summary for this molecule, "Cn1c(=NC(=O)CSCC(=O)N2CCOCC2)sc2ccccc21" : GFP derepression (activation) is inactive

Summary for this molecule, "Cc1nc2cnc(Oc3cccc(Cl)c3)nc2n(C2CC2)c1=O" : GFP derepression (activation) is -2.7% [at 9.22 µM] (inactive)

Summary for this molecule, "COc1ccc(C(=O)N2CCC3(CCCN(C(c4ccccc4)c4ccccc4)C3)CC2)cc1" : GFP derepression (activation) is -2.3% [at 9.22 µM] (inactive)

Summary for this molecule, "COc1ccc(OCC(=O)OCC(=O)Nc2ccc(S(=O)(=O)N3CCCCC3)cc2)cc1" : GFP derepression (activation) is inactive

Summary for this molecule, "CCNCCCNCCCNCCCNCC" : GFP derepression (activation) is inactive

* * *

Assay: qHTS Assay for Epigenetic Modulators; further: % of control where 0% means no effect
Settings: mouse C127i GFP locus derepression, cytometry, 30 h; series mostly up to 46.1 µM
Screen size: about 68,000 compounds; about 60 (0.09%) were called active. Only a sample is shown.
measurement type: GFP derepression (activation)

molecule | GFP derepression (activation)
Cc1ccc(S(=O)(=O)N2CCC(C(=O)N[C@@H](C)C(=O)NCCc3ccccc3)CC2)cc1 | inactive
N#Cc1cc2[nH]c(=O)c(=O)[nH]c2cc1[N+](=O)[O-] | inactive
CCOc1cccc(NC(=O)CC#N)c1 | inactive
CC(=O)c1sc2nc(SCC(=O)N3CCCCC3)[nH]c(=O)c2c1C | inactive
CCCCCCCCCCCC(=O)O[C@H](CC(=O)O)C[N+](C)(C)C | inactive
CCn1c(Cc2ccccc2)nnc1SCC(=O)Nc1ccccc1 | inactive

Summary for this molecule, "CN(Cc1ccco1)c1ncncc1-c1ccoc1" : GFP derepression (activation) is 3.4% [at 9.22 µM] (inactive)

Summary for this molecule, "Cn1cc(-c2nc3cnc(N4CCNCC4)nc3n(CCC#N)c2=O)c2ccccc21" : GFP derepression (activation) is 7.6% [at 9.22 µM] (inactive)

Summary for this molecule, "N#CC(C(N)=O)=C1CCC2(CC1)OCCCCO2" : GFP derepression (activation) is inactive

Summary for this molecule, "Cc1cccc(Cn2c(N3CCN(c4ccccc4)CC3)nc3c2c(=O)n(C)c(=O)n3C)c1" : GFP derepression (activation) is inactive

Summary for this molecule, "N#Cc1cccc(-c2nc3cnc(N4CCNCC4)nc3n(C3CC3)c2=O)c1" : GFP derepression (activation) is -5% [at 9.22 µM] (inactive)

Summary for this molecule, "C[C@]1(O)CC[C@H]2[C@H]3CC=C4N5CCN=C5CC[C@@]4(C)[C@H]3CC[C@@]21C" : GFP derepression (activation) is -3.4% [at 9.22 µM] (inactive)

Summary for this molecule, "CN(C)CCSS(=O)(=O)O" : GFP derepression (activation) is 0.1% [at 9.22 µM] (inactive)

* * *

Experiment: qHTS Assay for Epigenetic Modulators; further: % of control where 0% means no effect
Settings: mouse C127i GFP locus derepression, cytometry, 30 h; series mostly up to 46.1 µM
Hit rate of the full screen: of about 68,000 compounds, about 60 (0.09%) were called active. The list is a sample of the results.
measurement type: GFP derepression (activation)

Solved cases (4 shown):
compound | GFP derepression (activation)
Fc1ccc(Cn2nnnc2C(c2cccs2)N2CCCCCC2)cc1 (stereo not given) | inactive
COc1cccc(Cn2c(=O)c(-c3ccccc3)nc3cnc(OC)nc32)c1 | 10.8% [at 9.22 µM] (inactive)
Cn1cccc1C1(C(F)(F)F)NCCNC1=O (stereo not given) | inactive
CCNC(=O)CN(c1ccc(C)cc1)S(=O)(=O)c1ccc(SC)cc1 | inactive

Summary for this compound, CCCN1C(=O)C(NC(C)=O)c2cc(OC)ccc21 (stereo not given) : GFP derepression (activation) is inactive

Summary for this compound, CC(NC(=O)CSc1nc2c(cc1C#N)CN(C)CC2)c1ccccc1 (stereo not given) : GFP derepression (activation) is inactive

Summary for this compound, "Cc1cccc(NC(=O)CSc2nc3c(c(=O)[nH]2)CCC3)c1C" : GFP derepression (activation) is inactive

Summary for this compound, N/C(=N\c1nc2ccccc2o1)NC(=O)C(Cc1ccccc1)N1C(=O)c2ccccc2C1=O (stereo not given) : GFP derepression (activation) is inactive

Summary for this compound, "O=C(c1cc(C(F)(F)F)cc(C(F)(F)F)c1)N1CCC2(CCCN(Cc3ccncc3)C2)CC1" : GFP derepression (activation) is 2.2% [at 9.22 µM] (inactive)

Summary for this compound, "CC(C)[C@H](CO)Nc1nc(Nc2cc(N)cc(Cl)c2)c2ncn(C(C)C)c2n1" : GFP derepression (activation) is inactive
